Values were extracted from patent US7994209B2.

Molecular target: hSERT (Homo sapiens, UniProt P31645)
Sequence (P31645 whole entry): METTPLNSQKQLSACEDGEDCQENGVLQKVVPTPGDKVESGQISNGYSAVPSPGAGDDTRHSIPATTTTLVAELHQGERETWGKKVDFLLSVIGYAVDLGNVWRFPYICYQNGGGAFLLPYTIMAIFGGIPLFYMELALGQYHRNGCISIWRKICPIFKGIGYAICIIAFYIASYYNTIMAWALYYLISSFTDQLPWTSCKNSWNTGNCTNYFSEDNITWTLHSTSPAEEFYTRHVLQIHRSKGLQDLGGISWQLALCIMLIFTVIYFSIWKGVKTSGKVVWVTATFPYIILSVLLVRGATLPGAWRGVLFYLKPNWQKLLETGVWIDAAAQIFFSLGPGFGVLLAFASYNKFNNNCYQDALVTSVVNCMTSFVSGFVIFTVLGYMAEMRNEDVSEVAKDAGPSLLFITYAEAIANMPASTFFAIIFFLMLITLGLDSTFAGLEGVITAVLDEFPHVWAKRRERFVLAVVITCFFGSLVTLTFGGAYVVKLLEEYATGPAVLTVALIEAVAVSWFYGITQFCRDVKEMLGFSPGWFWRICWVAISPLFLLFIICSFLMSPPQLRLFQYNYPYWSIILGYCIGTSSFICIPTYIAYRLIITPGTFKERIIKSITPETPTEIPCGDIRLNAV
Assay: fluorescence-based serotonin reuptake inhibition assay (Tsuruda et al. 2010; data indicated by an asterisk)
Format: cell-based
Design: expressed in transfected cells; host or cells: HEK-293
Conditions: fluorescence-based assay (values with asterisk), read-out: SERT pIC50 (converted)
Measured IC50, listed per entry.

| compound | IC50 |
| --- | --- |
| CC(C)C[C@H](Oc1cc(Cl)cc(Cl)c1)[C@@H]1CCNC1 | ≤ 10 nM |
| CC[C@@H](Oc1cc(F)cc(Cl)c1)[C@H]1CCNC1 | ≤ 100 nM |
| CC(C)[C@H](Oc1cc(Cl)cc(Cl)c1)[C@@H]1CCNC1 | ≤ 100 nM |
| Fc1cc(Cl)cc(F)c1O[C@H](C1CC1)[C@H]1CCNC1 | ≤ 10 nM |

// next item, IC50 requested
Query string: Test system hSERT (Homo sapiens, UniProt P31645); read-out IC50; what value for Cc1cc(O[C@@H](C2CC2)[C@H]2CCNC2)ccc1Cl ?
Result string: ≤ 10 nM

----------
Target: hNET (Homo sapiens, UniProt P23975)
Sequence (P23975 whole entry): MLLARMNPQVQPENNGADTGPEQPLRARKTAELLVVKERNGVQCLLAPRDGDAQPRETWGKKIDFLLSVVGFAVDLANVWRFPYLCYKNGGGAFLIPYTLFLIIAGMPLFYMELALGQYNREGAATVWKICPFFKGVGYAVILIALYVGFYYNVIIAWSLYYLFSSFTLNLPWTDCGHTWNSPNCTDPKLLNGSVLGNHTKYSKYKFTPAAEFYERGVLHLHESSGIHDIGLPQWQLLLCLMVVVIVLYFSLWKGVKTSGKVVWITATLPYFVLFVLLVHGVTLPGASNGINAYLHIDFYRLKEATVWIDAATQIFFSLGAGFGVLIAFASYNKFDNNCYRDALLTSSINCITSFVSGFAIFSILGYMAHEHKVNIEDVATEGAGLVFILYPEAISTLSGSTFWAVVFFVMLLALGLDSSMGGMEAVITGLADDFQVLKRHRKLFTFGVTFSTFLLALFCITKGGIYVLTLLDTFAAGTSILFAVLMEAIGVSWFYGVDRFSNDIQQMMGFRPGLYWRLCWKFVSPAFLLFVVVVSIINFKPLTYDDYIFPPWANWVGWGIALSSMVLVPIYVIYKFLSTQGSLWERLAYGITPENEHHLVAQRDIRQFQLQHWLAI
Assay: fluorescence-based norepinephrine reuptake inhibition assay (Tsuruda et al. 2010; data indicated by an asterisk)
Format: cell-based
Design: expressed in transfected cells; host or cells: HEK-293
Conditions: norepinephrine reuptake inhibition, fluorescence-based assay (values with asterisk); read-out: NET pIC50 (converted)
measurement type: IC50

| compound | IC50 |
| --- | --- |
| CC[C@@H](Oc1cccc(Cl)c1C)[C@H]1CCNC1 | ≤ 10 nM |

Query string: Test system hNET (Homo sapiens, UniProt P23975); read-out IC50; what value for CC(C)[C@@H](Oc1cc(Cl)ccc1Cl)[C@H]1CCNC1 ?
Result string: ≤ 100 nM

Query string: Test system hNET (Homo sapiens, UniProt P23975); read-out IC50; what value for CCC[C@@H](Oc1cccc(Cl)c1F)[C@H]1CCNC1 ?
Result string: ≤ 10 nM

Query string: Test system hNET (Homo sapiens, UniProt P23975); read-out IC50; what value for Cc1c(Cl)cccc1O[C@@H](CC(C)C)[C@@H]1CCNC1 ?
Result string: ≤ 10 nM

----------
Molecular target: hNET (Homo sapiens, UniProt P23975)
Measured Ki, listed per entry.

Query string: Test system hNET (Homo sapiens, UniProt P23975); read-out Ki; what value for CC(C)CC(Oc1ccc(Cl)cc1)C1CCNC1 (stereo not drawn) ?
Result string: ≤ 10 nM

----------
Molecular target: hSERT (Homo sapiens)
Assay: fluorescence-based serotonin reuptake inhibition assay (Tsuruda et al. 2010; data indicated by an asterisk)
Format: cell-based
Parameters: expressed in transfected cells; host or cells: HEK-293
Conditions: fluorescence-based assay (values with asterisk), read-out: SERT pIC50 (converted)
measurement type: IC50

Sample records with IC50:
| compound | measurement type | measured |
| --- | --- | --- |
| Cc1cc(Cl)ccc1O[C@H](C(C)C)[C@@H]1CCNC1 [Example 6-46] | IC50 | ≤ 100 nM |
| COc1c(F)ccc(O[C@@H](C2CC2)[C@H]2CCNC2)c1F [Example 16-54] | IC50 | ≤ 10 nM |

Query string: Test system hSERT (Homo sapiens); read-out IC50; what value for CCC[C@@H](Oc1ccc(Cl)c(C)c1)[C@H]1CCNC1 [Example 4-15] ?
Result string: ≤ 10 nM

----------
Biological target: UniProt:P31645
Assay: fluorescence-based serotonin reuptake inhibition assay (Tsuruda et al. 2010; data indicated by an asterisk)
Format: cell-based
Parameters: expressed in transfected cells; host or cells: HEK-293
Details: fluorescence-based assay (values with asterisk), read-out: SERT pIC50 (converted)
Measured IC50, listed per entry.

Sample records with IC50:
| compound | measurement type | measured |
| --- | --- | --- |
| Fc1cc(Cl)cc(O[C@@H](C2CC2)[C@H]2CCNC2)c1Cl [Example 16-57] | IC50 | ≤ 100 nM |
| Cc1ccc(F)c(O[C@H](C2CC2)[C@H]2CCNC2)c1Cl [Example 16-63] | IC50 | ≤ 100 nM |
| CC(C)[C@H](Oc1ccc(Cl)c(Cl)c1)[C@@H]1CCNC1 [Example 6-65] | IC50 | ≤ 10 nM |
| Fc1ccc(Cl)c(Cl)c1O[C@@H](C1CC1)[C@H]1CCNC1 [Example 16-59] | IC50 | ≤ 10 nM |
| CCC[C@@H](Oc1cccc(Cl)c1F)[C@H]1CCNC1 [Example 4-46] | IC50 | ≤ 100 nM |
| CCC[C@@H](Oc1ccc(F)c(F)c1F)[C@H]1CCNC1 [Example 4-49] | IC50 | ≤ 10 nM |
| Clc1cccc(O[C@@H](C2CC2)[C@H]2CCNC2)c1 [Example 16-84] | IC50 | ≤ 100 nM |
| CC(C)[C@@H](Oc1ccc(Cl)cc1Cl)[C@@H]1CCNC1 [Example 6-23] | IC50 | ≤ 10 nM |

// next item, IC50 requested
Query string: I have this compound here, CC(C)[C@@H](Oc1cccc2ccccc12)[C@H]1CCNC1 [Example 14-6] , and I need its recorded IC50.
Result string: ≤ 10 nM

----------
Target: hSERT (Homo sapiens, UniProt P31645)
Assay: fluorescence-based serotonin reuptake inhibition assay (Tsuruda et al. 2010; data indicated by an asterisk)
Assay type: cell-based
Design: expressed in transfected cells; host or cells: HEK-293
Settings: fluorescence-based assay (values with asterisk), read-out: SERT pIC50 (converted)
measurement type: IC50

Sample records with IC50:
| compound | IC50 |
| --- | --- |
| CC(C)C[C@H](Oc1cccc(Cl)c1Cl)[C@@H]1CCNC1 | ≤ 10 nM |
| Cc1ccc(OC(C2CCCC2)C2CCNC2)c(Cl)c1 (mixture of isomers) | ≤ 10 nM |
| CC[C@H](Oc1cc(Cl)cc(OC)c1)[C@H]1CCNC1 | ≤ 100 nM |

Query string: I have this compound here, CCC[C@@H](Oc1ccc(Cl)c(Cl)c1)[C@@H]1CCNC1 , and I need its recorded IC50.
Result string: ≤ 10 nM

Query string: I have this compound here, Clc1ccc(O[C@@H](C2CC2)[C@H]2CCNC2)cc1Cl , and I need its recorded IC50.
Result string: ≤ 10 nM

Query string: I have this compound here, CC(C)C[C@H](Oc1c(F)ccc(Cl)c1F)[C@H]1CCNC1 , and I need its recorded IC50.
Result string: ≤ 10 nM

Query string: I have this compound here, CC[C@@H](Oc1ccc(Cl)c(Cl)c1)[C@H]1CCNC1 , and I need its recorded IC50.
Result string: ≤ 10 nM

Query string: I have this compound here, CC(C)[C@H](Oc1cccc(F)c1Cl)[C@@H]1CCNC1 , and I need its recorded IC50.
Result string: ≤ 100 nM

Query string: I have this compound here, CC(C)[C@@H](Oc1c(F)cc(Cl)cc1F)[C@@H]1CCNC1 , and I need its recorded IC50.
Result string: ≤ 100 nM

Query string: I have this compound here, CCC[C@H](Oc1cccc(F)c1F)[C@H]1CCNC1 , and I need its recorded IC50.
Result string: ≤ 100 nM

Query string: I have this compound here, Cc1cc(O[C@@H](CC(C)C)[C@H]2CCNC2)ccc1Cl , and I need its recorded IC50.
Result string: ≤ 10 nM

----------
Measured IC50, listed per entry.
Target: hSERT (Homo sapiens)
Assay: hSERT neurotransmitter uptake assay (3H-5-HT), Assay 2
Assay type: cell-based
Parameters: expressed in transfected cells; host or cells: HEK-293
Conditions: serotonin reuptake inhibition, 3H-5-HT uptake, HEK-293 hSERT cells (values without asterisk); read-out: SERT pIC50 (converted)

Sample records with IC50:
| compound | IC50 |
| --- | --- |
| CC(C)CC(Oc1cccc(Cl)c1C(F)(F)F)C1CCNC1 (stereo not drawn) | ≤ 10 nM |
| CCCC[C@@H](Oc1cc(F)c(F)cc1F)[C@H]1CCNC1 | ≤ 100 nM |

// next item, IC50 requested
Query string: Test system hSERT (Homo sapiens); read-out IC50; what value for CC(C)CC(Oc1cccc(F)c1)C1CCNC1 (stereo not drawn) ?
Result string: ≤ 10 nM

----------
What follows is a collection of Ki values obtained with UniProt:P23975.

Sample records with Ki:
| compound | Ki |
| --- | --- |
| CC(C)[C@H](Oc1ccc(Cl)cc1)[C@H]1CCNC1 | ≤ 10 nM |
| C#CC(Oc1c(Cl)ccc(Cl)c1Cl)[C@H]1CCNC1 (some centres unmarked) | ≤ 10 nM |
| CCC[C@H](Oc1ccc(Cl)cc1C(F)(F)F)[C@@H]1CCNC1 | ≤ 100 nM |
| Clc1ccc(O[C@@H](C2CC2)[C@H]2CCNC2)cc1Cl | ≤ 10 nM |
| CC[C@@H](Oc1cccc(Cl)c1Cl)[C@@H]1CCNC1 | ≤ 10 nM |

Query string: Test system UniProt:P23975; read-out Ki; what value for CC[C@H](Oc1cccc2ccccc12)[C@H]1CCNC1 ?
Result string: ≤ 10 nM

Query string: Test system UniProt:P23975; read-out Ki; what value for CCC[C@H](Oc1cccc(Cl)c1C)[C@@H]1CCNC1 ?
Result string: ≤ 100 nM

Query string: Test system UniProt:P23975; read-out Ki; what value for CC[C@@H](Oc1ccc(Cl)cc1)[C@@H]1CCNC1 ?
Result string: ≤ 100 nM

Query string: Test system UniProt:P23975; read-out Ki; what value for Cc1ccc(O[C@@H](C2CC2)[C@H]2CCNC2)c(F)c1F ?
Result string: ≤ 10 nM

Query string: Test system UniProt:P23975; read-out Ki; what value for CCC[C@H](Oc1cccc(Cl)c1Cl)[C@@H]1CCNC1 ?
Result string: ≤ 100 nM
